Measured TGI of individual entries
Tested on: COLO 205 colon
experiment: NCI tumour cell line growth inhibition, 48 h
readoutType: TGI

                                    compound     result
 0  COc1cc2c(cc1OC)[C@H]1C(COC(=O)c3ccccc3)CSC(=Nc3ccccc3)N1CC2 (stereo partly specified)   > 100 µM
 1       Nc1c([N+](=O)[O-])cc2c3c(cccc13)CC2   > 100 µM
 2                          CN(C)C=[N+]=[N-]   > 100 µM
 3  NC1CC(Cl)c2c(Cl)sc(Cl)c21 (stereo unspecified)   > 100 µM
 4  COc1ccc(C(=O)/C=C/c2ccc3c(c2)OCO3)c(OCc2ccccc2)c1   > 100 µM
 5       CCOC(=O)/C(=C\c1cccs1)P(=O)(OCC)OCC    30.4 µM
 6  O=c1[nH]c(=O)c2cc(C3CC(O)C(CO)O3)ccc2[nH]1 (stereo unspecified)   > 100 µM
 7  COC(=O)C(Cc1ccc(Oc2cc(CC(NC(=O)c3ccccc3)C(=O)OC)ccc2OC)cc1)NC(=O)c1ccccc1 (stereo unspecified)  > 73.2 µM
 8  CC1(c2cccc(Cl)c2)CC(c2cccc(Cl)c2)=C(C#N)C(=C(C#N)C#N)N1 (stereo unspecified)    29.9 µM
 9                    c1ccc2cc3[s+]snc3cc2c1   > 100 µM
10  O=P(CCCCP(=O)(c1ccccc1)c1ccccc1)(c1ccccc1)c1ccccc1.[Cl][Sn]([Cl])([c]1ccccc1)[c]1ccccc1    3.98 µM
